- protocol: Volume of distribution at steady state in female athymic nude Foxn1nu mouse at 1 mg/kg, iv administered as single dose and measured after 24 hrs by LC/MS analysis
- Format: ADME, organism-based
- condition-context: in vivo, read-out: Vdss
measurement-type: Vd (L/kg)
# output: bare number, implied unit L/kg

Query: Need Vd of "Cn1ccc([C@H]2C[C@H](N(c3cc(F)c(NC(=O)c4ccnn(-c5ccc(F)cn5)c4=O)cc3F)c3nccn4nccc34)C2)n1" , thanks.
Result: 1.3

---

- protocol: Displacement of tracer 236 from N-terminal GST-tagged recombinant human MET exon 14 deletion mutant (956 to end residues) expressed in Sf9 insect cells incubated for 1 hr by TR-FRET assay
pIC50 overview
Just the number, please; pIC50 means minus log10 of the concentration in mol/L.

Completed entries (count: 3):
# chemical-smiles, assay-result
data = [
    ("CC(C)(C#N)CN(c1cc(F)c(NC(=O)c2ccnn(-c3ccc(F)cn3)c2=O)cc1F)c1cccn2nccc12", 8.52),
    ("Cn1ccc([C@H]2C[C@H](N(c3cc(F)c(NC(=O)c4ccnn(-c5ccc(F)cn5)c4=O)cc3F)c3cc(F)cn4nccc34)C2)n1", 7.89),
    ("CO[C@H]1C[C@@H](N(c2cc(F)c(NC(=O)c3ccnn(-c4ccc(F)cn4)c3=O)cc2F)c2cccn3nccc23)C1", 8.40),
]

Query: Can you look up the measured pIC50 of "O=C(Nc1cc(F)c(N(c2cccn3nccc23)C2CCC2)cc1F)c1ccnn(-c2ccc(F)cc2)c1=O" for me?
Result: 7.80

Query: Returns the measured pIC50 for the input compound. Input: "Cn1ccc([C@H]2C[C@H](N(c3cc(F)c(NC(=O)c4ccnn(-c5ccc(F)cn5)c4=O)cc3F)c3nccn4nccc34)C2)n1"
Result: 8.22

Query: What value of pIC50 has been recorded for this entry: "COc1cc(N(c2cc(F)c(NC(=O)c3ccnn(-c4ccc(F)cn4)c3=O)cc2F)[C@H]2C[C@H](c3ccn(C)n3)C2)c2ccnn2c1"
Result: 7.80

Query: Item under review: "CCN(c1cc(F)c(NC(=O)c2ccnn(-c3ccc(F)cc3)c2=O)cc1F)c1cccn2nccc12" . Reported pIC50?
Result: 7.44

Query: State the recorded pIC50 for this entry: "Cn1ccc([C@H]2C[C@H](N(c3cc(F)c(NC(=O)c4ccnn(-c5ccc(F)cn5)c4=O)cc3Cl)c3nccn4nccc34)C2)n1"
Result: 8.22
